- Assay explanation: yeast growth modulation, basal conditions, primary screen, YJM789 clinical isolate, OD600, 24 h (AID 1089);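 also: growth of clinical yeast isolate S. cerevisiae YJM 789 seeded 1000 cells per well; test concentration not given here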
- Applied conditions: S. cerevisiae YJM789 growth, higher = more signal, called active from +8 up or from −8 down
Short version: z-score at least -0.1 is yes, less is no.

CCN1C(=O)[C@H]2[C@H]3[C@H](O)[C@H](O)CC(=NOC(C)CN4CCCCc5nc(C)c(C)cc54)[C@@H]3CC[C@H]2C1=O (stereo partly specified) :: yes
CCN1C(=O)[C@H]2[C@H]3[C@H](O)[C@H](O)CC(=NOCc4ccccc4)[C@@H]3CC[C@H]2C1=O :: no
CCCCCN1CC=CC23O[C@@H]4C=CCOC(=O)[C@@H]4[C@H]2C(=O)N(CCCCCCO)[C@@H]3C1=O (stereo partly specified) :: no
CO[C@H]([C@@H](C)[C@H](OC)c1ccccc1)[C@H](C)[C@@H](OC)[C@H](C)C(C)=O :: yes
COc1ccccc1CN1C(=O)c2ccccc2[C@@H](C(=O)NCC(F)(F)F)[C@@H]1c1ccc(CO)cc1 :: yes
O[C@@H](Cc1ccccc1)[C@H]1C2C=CCCC(c3ccccc3)=C2CN1Cc1cccc(Cl)c1 (stereo partly specified) :: no
COC(=O)c1c(CC[C@@H](CO)NC(=O)N[C@H](Cc2ccccc2)Cn2cc(-c3ccccc3N)nn2)oc(C(C)=O)c1C(=O)OC :: no
CN1C(=O)C2C=CC(C(O)c3ccc(Br)cc3)N(N(c3ccccc3)c3ccccc3)C2C1=O (stereo unspecified) :: yes
[N-]=[N+]=Nc1ccccc1C[C@@]1(C(N)=O)N=C(c2ccc(OCCCO)cc2)O[C@@H]1c1ccccc1 :: no
CC(C)=C1C(=O)C(c2ccccc2)=C2CN3C(=O)N(CCc4ccccc4)C(=O)[C@]3(Cc3ccc(F)cc3)[C@H]21 :: no
O=C1[C@H]2[C@H]3[C@H](O)[C@H](O)CC(=NOCc4ccccc4)[C@H]3CC[C@H]2C(=O)N1c1cccc(Oc2ccccc2)c1 :: yes
COC(=O)C1=C(C)[C@@H](O)[C@@H](C)[C@H](c2c(OC)c(OC)c(C)c(OC)c2OC)O1 :: yes
CCOc1ccc(N2C(=O)/C(=C/C=C/c3ccccc3OC)S(=O)(=O)C2c2cccc([N+](=O)[O-])c2)cc1 (stereo unspecified) :: no
N#Cc1ccc(NN2C(C(O)c3cc(C(F)(F)F)cc(C(F)(F)F)c3)C=CC3C(=O)N(c4ccccc4)C(=O)C32)cc1 (stereo unspecified) :: yes
CO[C@@H]1COC(=O)CC=C[C@@H](C)[C@H](OC)COC(=O)[C@H](COCc2ccccc2)NC(=O)CC=C[C@H]1C :: yes
C[C@@H](c1ccccc1)N1C(=O)[C@H]2[C@H]3[C@H](O)C=CC(=O)[C@@H]3CC[C@H]2C1=O :: no

====

- System: Sam68 (KHDRBS1)
- Assay explanation: Sam68 small-molecule binders, primary screen, biochemical, small-molecule microarray, 635 nm fluorescence (AID 1125);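 also: score merges 667 nm channel intensity with signal to noise over triplicate slides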
- Applied conditions: small-molecule microarray binding, higher = more signal
Catalogue of composite z-score values
Readout: composite z-score

COC(=O)CC=C[C@@H](C)[C@@H](C=NO[C@@H](C)c1cc(-c2c(C)cc(C)cc2C)no1)OC :: -1.32
CC=CC1=C(CO)[C@H](O)[C@H]2O[C@H]2[C@H]1O :: 0.278
O=C1[C@H]2[C@H]3[C@H](O)[C@H](O)CC(=NO[C@@H]4O[C@H](CO)[C@@H](O)[C@H](O)[C@H]4O)[C@H]3CC[C@H]2C(=O)N1C1CCCCC1 :: 1.3
CN(C)C(=O)[C@@]1(Cc2ccccc2)N=C(c2ccc(OCCCO)cc2)O[C@H]1c1ccccc1CN=[N+]=[N-] :: 1.29
NCCCCCNC(=O)[C@@H]1C[C@@H]2C(=O)N3CCC[C@H]3C(=O)N2[C@@H]1c1cccc(OCCO)c1 :: 1.19
CC(CCC(=O)OC[C@H]1O[C@H](C#Cc2ccccc2)C=C[C@@H]1Oc1ccc(C)cc1)=NOC[C@@H](O)COCc1ccco1 :: -1.96
C=CC[C@@H]1C=C[C@H](ON=C(C)CCN2CCc3nc(CC)c(CC)cc3C2)[C@@H](CO)O1 :: 0.822
COC(=O)[C@H](C)NC(=O)CCC1CC(OC(=O)NCCc2ccc(F)cc2)CC2(CCCC(COC(=O)NCCc3ccc(Cl)cc3)O2)O1 (stereo partly specified) :: 1.07
Cn1cccc1C(O)C1C=CC2C(=O)NC(=O)C2N1Nc1ccccn1 (stereo unspecified) :: -1.45
CO[C@@H]1COC(=O)[C@@H]2CCCN2C(=O)[C@@H](C)COC(=O)[C@H](COCc2ccccc2)NC(=O)CC=C[C@H]1C :: 0.813
COCCCNC(=O)[C@@]1(Sc2ccc(C)cc2)CC(=O)N(Cc2ccccc2)[C@@H]1c1ccc(CO)cc1I :: -0.249
CO[C@@H]1COC(=O)CCC[C@@H](C)[C@H](OC)COC(=O)CCC[C@H]1C :: -0.12
CO[C@H]1COC(=O)[C@@H]2CCCN2C(=O)[C@@H](C)COC(=O)CC=C[C@@H]1C :: 0.474
COC(=O)C1(C)C=C2C(=C(c3ccccc3)C(=O)C2C)CN1 (stereo unspecified) :: -0.999
CCCCCN1CC=CC23O[C@@H]4C=CCOC(=O)[C@@H]4[C@H]2C(=O)N(C(CO)C(C)C)[C@@H]3C1=O (stereo partly specified) :: -0.827
COC(=O)C1=C(C)N(Cc2ccccc2)[C@]23O[C@](C(=O)OC)(C(=O)N2[C@@H]1c1ccccc1)[C@H]1CCOC(=O)[C@H]13 :: -0.0775

Data origin: PubChem BioAssay
